system under test: T1, human PEPT1 (hPEPT1) receptor domain, amino acid residues 391-571, His-tag fusion protein (human, UniProt P46059 391-571)
T1 construct: Expressed as His-tag fusion, purified under denaturing conditions, coated on plates; not shown: poly-histidine tag (pET His-tag) at the NH2-terminal end
T1 sequence: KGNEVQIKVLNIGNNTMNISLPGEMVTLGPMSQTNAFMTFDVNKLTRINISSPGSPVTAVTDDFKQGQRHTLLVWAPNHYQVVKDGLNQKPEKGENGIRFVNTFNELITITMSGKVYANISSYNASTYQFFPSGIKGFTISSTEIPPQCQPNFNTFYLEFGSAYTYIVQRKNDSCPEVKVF
test summary: phage ELISA, coated hPEPT1 domain
Label scheme for OD: lower than 0.4 OD 650 nm is not satisfied, 0.4 OD 650 nm and above is satisfied.

| binder | label class |
| --- | --- |
| RTFENDGLGVGRSIQKKSDRWYASHNIRSHFASMSPAGK (pIII and flanks not included) [phage PAX14] | satisfied |
| SQVDSFRNSFRWYEPSRALCHGCGKRDTSTTRIHNSPSDSYPTR (pIII and flanks not included) [phage PAX17] | satisfied |
| RASTQGGRGVAPEFGASVLGRGCGSATYYTNSTSCKDAMGHNYS (pIII and flanks not included) [phage PAX40] | satisfied |
| RGWKCEGSQAAYGDKDIGRSRGCGSITKNNTNHAHPSHGAVAKI (pIII and flanks not included) [phage 5PAX12] | not satisfied |
| SARDSGPAEDGSRAVRLNGVENANTRKSSRSNPRGRRHP (pIII and flanks not included) [phage P31] | satisfied |
| RWCEKHKFTAARCSAGAGFERDASRPPQPAHRDNTNRNA (pIII and flanks not included) [phage PAX43] | not satisfied |
| RSITDGGINEVDLSSVSNVLENANSHRAYRKHRPTLKRP (pIII and flanks not included) [phage PAX35] | satisfied |
| SWTRWGKHTHGGFVNKSPPGKNATSPYTDAQLPSDQGPP (pIII and flanks not included) [phage PAX16] | satisfied |
| RWPSVGYKGNGSDTIDVHSNDASTKRSLIYNHRRPLFP (pIII and flanks not included) [phage PAX9] | not satisfied |
| SYCRVKGGGEGGHTDSNLARSGCGKVARTSRLQHINPRATPPSR (pIII and flanks not included) [phage PAX15] | not satisfied |
| SRCTDNEQCPDTGTRSRSVSNARYFSSRLLKTHAPHRP (pIII and flanks not included) [phage PAX46] | satisfied |
| SFLRFQSPRFEDYSRTISRLRNATNPSNVSDAHNNRALA (pIII and flanks not included) [phage PAX18] | satisfied |
